Target of assay: T1, Mouse GCGR (mouse, UniProt Q61606 27-485)
T1 construct: whole, on cells; also called mouse glucagon receptor
T1 sequence (Q61606 27-485): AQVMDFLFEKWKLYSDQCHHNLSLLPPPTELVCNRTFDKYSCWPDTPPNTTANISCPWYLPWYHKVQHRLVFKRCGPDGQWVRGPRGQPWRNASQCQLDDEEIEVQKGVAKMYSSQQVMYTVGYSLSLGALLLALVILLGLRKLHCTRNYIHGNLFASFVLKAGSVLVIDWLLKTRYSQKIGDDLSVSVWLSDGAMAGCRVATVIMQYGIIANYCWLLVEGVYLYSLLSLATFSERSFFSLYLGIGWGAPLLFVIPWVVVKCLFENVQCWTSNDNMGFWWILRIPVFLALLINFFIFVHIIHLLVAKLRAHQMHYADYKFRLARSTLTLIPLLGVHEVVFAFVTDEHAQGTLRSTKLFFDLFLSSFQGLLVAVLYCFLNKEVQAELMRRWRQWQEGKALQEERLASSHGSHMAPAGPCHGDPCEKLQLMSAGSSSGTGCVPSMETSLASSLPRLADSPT
Test protocol: cell ELISA on fixed CHO cells overexpressing GCGR
Overview of reported EC50 across a group of binders:
Endpoint: EC50

binder="ch1805 (antibody, human IgG4 S228P, kappa, F234A L235A, V domains shown, IgG4-AA / kappa chimeric antibody; also called chimeric antibody of clone 1805) VH: EVQLQQSGPELVKPGASVKIPCKTSGYTFTDYNMDWVKQSHGRSLEWIGSIDPDNGGTIYNQKFKGKATLTVDKSSSTAYMELRSLTSEDTAVYYCTRDYYGSSSWFAYWGQGTLVTVSA VL: DVVMTQSPATLSVTPGDRVSLSCRASQSISDYLHWYQQKSHESPRLLIKYASQSISGIPSRFSGSGSGSDFTLSINSVEPEDVGVYYCQNGHSFPYTFGGGTKLEIKR" endpoint=EC50 result="0.343 nM"
binder="ch1822 (antibody, human IgG4 S228P, kappa, F234A L235A, V domains shown, IgG4-AA / kappa chimeric antibody) VH: EVRLVESGGDFVQPGRSVKLSCAASGFTFSNYYMAWVRQAPTKGLEWVGSISTGGVNTYYRDSVKGRFTISRDNAESTLYLQMDSLRSEETATYYCARHTTPDYHYGIYFAMDAWGQGTSVTVSS VL: QVTLTQPKSVSGSLRSTITIPCERSSGDIGESYVNWYQQHLGRPPINVIYADDQRPSEVSDRFSGSIDSSSNSASLTITNLQVDDEADYFCQSYDSSIDIFFGGGTKLTVLR" endpoint=EC50 result="0.568 nM"
binder="ch1803 (antibody, human IgG4 S228P, kappa, F234A L235A, V domains shown, IgG4-AA / kappa chimeric antibody) VH: QFQLHQSGAELVKPGASVKLSCKATGYTFTDYWIEWVKQRPGHGLEWIGEILPGSTYTNYNEKFKGRATFTAEPSSSSAYMQLSGLTTEDSAIYYCSRGLSTLMAVDYFDYWGQGTTLTVSS VL: DIQMTQTTSSLSASLGDRVTINCRASQDISNYLNWYQQKPDGTVKLLIYYSSTLHSGVPSRFSGSGSGTDYSLTISHLEQEDIATYFCQQTNIFPWTFGGGTKLEIRT" endpoint=EC50 result="0.718 nM"
